# Tested on: HCV 1a-H77 subgenomic replicon
# assay: microbe, parasite or virus in culture
# Type: cell-based, HCV genotype 1a
# test.settings: Hepatitis C virus, stable replicon, 5% FBS, absence of human plasma; read-out: Stable Replicon 1a H77 5% FBS EC50
pEC50: −log10 of the molar value.
Reported pEC50 values for the following compounds.
measured.metric: pEC50

> print(dat)
                                   compound  reported.measurement
1  COc1ccc(CN(c2cc3oc(-c4ccc(F)cc4)c(C4=NOC(C)N4)c3cc2C2CC2)S(C)(=O)=O)cc1 (stereo not shown)                  6.92
2  CS(=O)(=O)N(CCCN1CCCC1)c1cc2oc(-c3ccc(F)cc3)c(C3=NOCCN3)c2cc1C1CC1                  6.85
3  CS(=O)(=O)N(CCCc1nsc(=O)[nH]1)c1cc2oc(-c3ccc(F)cc3)c(C3=NOCCN3)c2cc1C1CC1                  7.16
4  CS(=O)(=O)N(CC#N)c1cc2oc(-c3ccc(F)cc3)c(-c3ncc[nH]3)c2cc1C1CC1                  7.17

* * *

# Tested on: HCV 1b-BB7 subgenomic replicon
# assay: microbe, parasite or virus in culture
# Format: cell-based, HCV genotype 1b
# test.settings: Hepatitis C virus, stable replicon, strain 1b BB7, 5% FBS + 40% human plasma; read-out: 1b BB7 5% FBS + 40% Human Plasma EC50
Overview of recorded EC50 for various compounds
measured.metric: EC50

> print(dat)
                                    compound                  assayed.target  measured.metric  reported.measurement
 1  COCCCN(c1cc2oc(-c3ccc(F)cc3)c(-c3ncc[nH]3)c2cc1C1CC1)S(C)(=O)=O  HCV 1b-BB7 subgenomic replicon             EC50                 59 nM
 2  CS(=O)(=O)N(CCCN1CCCC1)c1cc2oc(-c3ccc(F)cc3)c(C3=NOCCN3)c2cc1C1CC1  HCV 1b-BB7 subgenomic replicon             EC50                122 nM
 3  CS(=O)(=O)N(CCCN1CCS(=O)(=O)CC1)c1cc2oc(-c3ccc(F)cc3)c(C3=NOCCN3)c2cc1C1CC1  HCV 1b-BB7 subgenomic replicon             EC50                377 nM
 4  CS(=O)(=O)N(CCC/C(N)=N/O)c1cc2oc(-c3ccc(F)cc3)c(C3=NOCCN3)c2cc1C1CC1  HCV 1b-BB7 subgenomic replicon             EC50                702 nM
 5  CCCCN(c1cc2oc(-c3ccc(F)cc3)c(-c3ncc[nH]3)c2cc1C1CC1)S(C)(=O)=O  HCV 1b-BB7 subgenomic replicon             EC50                 59 nM
 6  CS(=O)(=O)N(CCCC(=O)O)c1cc2oc(-c3ccc(F)cc3)c(C3=NOCN3)c2cc1C1CC1  HCV 1b-BB7 subgenomic replicon             EC50               2460 nM
 7  CC1NC(c2c(-c3ccc(F)cc3)oc3cc(N(CCCCO)S(C)(=O)=O)c(C4CC4)cc23)=NO1 (centres unmarked)  HCV 1b-BB7 subgenomic replicon             EC50                199 nM
 8  CS(=O)(=O)N(CCc1csc(N)n1)c1cc2oc(-c3ccc(F)cc3)c(-c3ncc[nH]3)c2cc1C1CC1  HCV 1b-BB7 subgenomic replicon             EC50                644 nM
 9  CCN(c1cc2oc(-c3ccc(F)cc3)c(-c3ncc[nH]3)c2cc1C1CC1)S(C)(=O)=O  HCV 1b-BB7 subgenomic replicon             EC50                 62 nM
10  CC1NC(c2c(-c3ccc(F)cc3)oc3cc(N(CCO)S(C)(=O)=O)c(C4CC4)cc23)=NO1 (centres unmarked)  HCV 1b-BB7 subgenomic replicon             EC50                335 nM
11  CS(=O)(=O)N(CCCc1nsc(=O)[nH]1)c1cc2oc(-c3ccc(F)cc3)c(C3=NOCCN3)c2cc1C1CC1  HCV 1b-BB7 subgenomic replicon             EC50               1090 nM

* * *

# System: HCV 1b-BB7 subgenomic replicon
# assay: microbe, parasite or virus in culture
# Format: cell-based, HCV genotype 1b
# test.settings: Hepatitis C virus, stable replicon, strain 1b BB7, 5% FBS + 40% human plasma; read-out: 1b BB7 5% FBS + 40% Human Plasma EC50
measured.metric: EC50 (nM)

> print(dat)
                                    compound  measured.metric  result.unit  reported.measurement
 1  CS(=O)(=O)N(CC1CCCC1)c1cc2oc(-c3ccc(F)cc3)c(-c3ncc[nH]3)c2cc1C1CC1             EC50           nM                   854
 2  CS(=O)(=O)N(CC(N)=O)c1cc2oc(-c3ccc(F)cc3)c(-c3ncc[nH]3)c2cc1C1CC1             EC50           nM                  1120
 3  CC[S+]([O-])CCN(c1cc2oc(-c3ccc(F)cc3)c(C3=NOCCN3)c2cc1C1CC1)S(C)(=O)=O (stereo not drawn)             EC50           nM                   296
 4  CNS(=O)(=O)CCCN(c1cc2oc(-c3ccc(F)cc3)c(-c3ncc[nH]3)c2cc1C1CC1)S(C)(=O)=O             EC50           nM                    41
 5  CCCN(c1cc2oc(-c3ccc(F)cc3)c(-c3ncc[nH]3)c2cc1C1CC1)S(C)(=O)=O             EC50           nM                   110
 6  CC[S+]([O-])CCCN(c1cc2oc(-c3ccc(F)cc3)c(C3=NOCCN3)c2cc1C1CC1)S(C)(=O)=O (stereo not drawn)             EC50           nM                   333
 7  CC(O)CN(c1cc2oc(-c3ccc(F)cc3)c(-c3ncc[nH]3)c2cc1C1CC1)S(C)(=O)=O (stereo not drawn)             EC50           nM                  2060
 8  CS(=O)(=O)N(CCC1CCS(=O)(=O)C1)c1cc2oc(-c3ccc(F)cc3)c(C3=NOCCN3)c2cc1C1CC1 (stereo not drawn)             EC50           nM                   211
 9  CC(=O)CCCN(c1cc2oc(-c3ccc(F)cc3)c(-c3ncc[nH]3)c2cc1C1CC1)S(C)(=O)=O             EC50           nM                    55
10  CS(=O)(=O)N(CCC1CCS(=O)(=O)C1)c1cc2oc(-c3ccc(F)cc3)c(C3=NOCN3)c2cc1C1CC1 (stereo not drawn)             EC50           nM                   643
11  [2H]C1([2H])NC(c2c(-c3ccc(F)cc3)oc3cc(N(CCCCS(C)(=O)=O)S(C)(=O)=O)c(C4CC4)cc23)=NO1             EC50           nM                   231
12  CS(=O)(=O)N(Cc1cnc(-c2c[nH]c(=O)[nH]c2=O)s1)c1ccc2c(-c3ncc[nH]3)c(-c3ccccc3)oc2c1             EC50           nM                  9830
13  CS(=O)(=O)N(CCCS(=O)(=O)c1ccccc1)c1cc2oc(-c3ccc(F)cc3)c(-c3ncc[nH]3)c2cc1C1CC1             EC50           nM                    48
14  CS(=O)(=O)N(CC1CCCCC1)c1cc2oc(-c3ccc(F)cc3)c(-c3ncc[nH]3)c2cc1C1CC1             EC50           nM                  4410
15  CS(=O)(=O)N(Cc1cc(O)no1)c1cc2oc(-c3ccc(F)cc3)c(-c3ncc[nH]3)c2cc1C1CC1             EC50           nM                  1370
16  CCOC(=O)CN(c1cc2oc(-c3ccc(F)cc3)c(-c3ncc[nH]3)c2cc1C1CC1)S(C)(=O)=O             EC50           nM                  4810
17  CC(=O)OCCCCCN(c1cc2oc(-c3ccc(F)cc3)c(-c3ncc[nH]3)c2cc1C1CC1)S(C)(=O)=O             EC50           nM                    36
18  CS(=O)(=O)N(CCCCO)c1cc2oc(-c3ccc(F)cc3)c(C3=NOCCN3)c2cc1C1CC1             EC50           nM                    64
19  CS(=O)(=O)N(CCCN1CCCCC1)c1cc2oc(-c3ccc(F)cc3)c(C3=NOCCN3)c2cc1C1CC1             EC50           nM                   110
20  CS(=O)(=O)NC(=O)CCCN(c1cc2oc(-c3ccc(F)cc3)c(-c3ncc[nH]3)c2cc1C1CC1)S(C)(=O)=O             EC50           nM                   519
21  CS(=O)(=O)Nc1cc2oc(-c3ccc(F)cc3)c(-c3nc(Cl)c[nH]3)c2cc1C1CC1             EC50           nM                 10000
